Data provenance is the RNAGym collection of RNA variant scans (doi:10.1126/science.aae0568).

B1: tRNA (parent)
chain: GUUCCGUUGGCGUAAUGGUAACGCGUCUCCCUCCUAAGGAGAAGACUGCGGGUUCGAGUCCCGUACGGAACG

variants of: B1; assay: yeast fitness relative to wild type (ratio to wild type); higher = fitter; tRNA-Arg(CCU), competitive growth, 37 C, YPD
This sample holds only a part of the variants without activity.
endpoint-name: yeast fitness
Just the number, please, no unit after it.

Recorded result, A15G G18A , yeast fitness: 0.793

Please fill in: yeast fitness reported for `A15C` = 0.904

Field yeast fitness (entry A21G C22U C30G G51A A69U ) reads 0.551

Lab book: yeast fitness of A20C C24G U64C noted as 0.56

Value of measured yeast fitness for the entry C33A U35C C46U C49U G52C C61U C66U A69U : 0.528

The recorded yeast fitness for entry A21G U47A G68A equals 0.685

Input A20G G23C . Output yeast fitness: 0.727

yeast fitness for U26G A36U is 0.714

Lab note: measured yeast fitness of U7C G39A was 0.913

Entry A40G A43G G67C — recorded yeast fitness = 0.725

Sample C29U A45C G63A ; yeast fitness observed: 0.578

// yeast fitness value for U8C G18A : 0.686

Form field yeast fitness, entry U28A G51A A57U : 0.598

yeast fitness measured on U32A G58C = 0.651

The measured yeast fitness associated with A40C C62G reads 0.66

Looking up C22A C27G G41A , I found its yeast fitness recorded as 0.614

Please fill in: yeast fitness reported for G6C U13A = 0.718

Entry under test: U26A C66U . Its yeast fitness was 0.824

A21U C31G yielded yeast fitness of 0.842

yeast fitness in this record for U2A C11U A69U : 0.648

Noted for C4U C55U A65G : its yeast fitness reads 0.554
